Provenance of the data: PubChem BioAssay (NCI)

Record form. Attribute: TGI. Fill in for each entry.
Test system: SK-MEL-2 melanoma
Test: NCI tumour cell line growth inhibition, 48 h
Numbers only, in µM.

Here's what some known entries look like.
compound | TGI [µM]
CC(C)[Si](OC1=C(C(=O)N(C)c2cccc(Cl)c2)CCCC1)(C(C)C)C(C)C | 33.2
Clc1nc(Cl)c(Cl)c(-c2ccccc2)n1 | 51.7
COC(=O)[C@@H](C)CNS(=O)(=O)N(c1cc(C(F)(F)F)cc(C(F)(F)F)c1)C1CCN(Cc2ccc(F)cc2)CC1 | 41
CCOC(=O)CC1(C(=O)OCC)c2[nH]c3ccccc3c2CCN1Cc1ccccc1 (stereo not given) | 32.8
Cc1ccc(/C=C2\CCCc3ccccc3C2=O)cc1 | 9.07
O=C(O)Cc1cccc2c(=O)c3ccccc3oc12 | 56.5

Return reported TGI values for all items listed beneath this line.
1. O=C(N/N=C\c1cccc2c([N+](=O)[O-])cccc12)Nc1ccccc1
2. Oc1ccc(-c2nc(-c3cccnc3)c(-c3ccc(Cl)cc3)[nH]2)cc1
3. CCN(CC)C(=S)N/N=C(/C)c1cccc(/C(C)=N\NC(=S)N(CC)CC)n1
4. COc1ccc2ccccc2c1/C=C/C(=O)c1ccccc1
5. CC(C)(C)c1cc(Br)c(O)c(CN(Cc2cc(C(C)(C)C)cc(Br)c2O)C2CCCCC2)c1
6. O=C1C(CN2CCCCC2)CCC1CN1CCCCC1 (stereo not given)
7. O=C(O)c1ccc([N+](=O)[O-])c2cc3cnccc3nc12
8. COc1cc2nc3cc([N+](=O)[O-])ccc3c(NCCCNCCO)c2cc1OC

Output:
1. 18.2
2. 32.8
3. 20.3
4. 3.64
5. 25.8
6. 52.6
7. 38.9
8. 0.389

Okay, here is my list. What is TGI for each of these?
1. CN1c2ccc(Cl)cc2C(=O)NC1c1ccc([N+](=O)[O-])s1 (stereo not given)
2. Cc1ccc(-c2c(C#N)c(-c3ccc(Cl)cc3)c(C#N)c(=O)n2NS(=O)(=O)c2ccc(C)cc2)cc1

Output:
1: 30.8; 2: 40.4
